This collection of values is drawn from paper PMC4235346.

Test system: InrS E95A (Synechocystis PCC 6803)
Experiment: fluorescence anisotropy
Settings: apo, 5 mM EDTA, 10 nM labelled DNA, 10 mM HEPES pH 7.0, 60 mM NaCl, 240 mM KCl, 25 C, anaerobic, 5 mM EDTA for apo or 1.2x (InrS) / 2.2x (ZiaR) metal …
pKd: −log10 of the molar value.
Measurement Name: pKd

[[record]]
ordered_residues = "TCATCAATATCCCCCCTGGGGGCATAGAATAGA (double strand) [nrsDProFA (nrsD operator-promoter)]"
meas_value = 7.66

